- EXPERIMENTAL_SYSTEM: Neutrophil elastase (Homo sapiens, UniProt P08246)
- Sequence (P08246 whole entry): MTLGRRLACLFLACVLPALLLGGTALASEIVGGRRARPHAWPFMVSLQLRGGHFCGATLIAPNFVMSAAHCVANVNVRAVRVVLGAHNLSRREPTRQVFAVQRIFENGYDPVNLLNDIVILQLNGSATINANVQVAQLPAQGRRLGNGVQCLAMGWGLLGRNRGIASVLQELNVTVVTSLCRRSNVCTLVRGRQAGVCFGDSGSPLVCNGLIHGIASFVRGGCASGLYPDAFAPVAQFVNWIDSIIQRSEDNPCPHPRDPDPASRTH
- TEST_PROTOCOL: Inhibition of human leukocyte elastase assessed as reduction in pNA release using chromogenic MeO-Suc-Ala-Ala-Pro-Val-pNA substrate measured over 10 mins by spectrophotometry
- TEST_SETTINGS: read-out: IC50
pIC50: −log10 of the molar value.
Use TRUE when the recorded pIC50 is no lower than 6; use FALSE when it is lower.

Asked: Would you say "CNC(=O)O[C@@H](CC(C)C)c1nc([C@H]2OC(=O)[C@H](C)/C=C/C(C)=C/[C@@H](O)[C@@H](C)\C=C(C)/C=C(C)\C=C\[C@@H](O)[C@H](C)[C@H](OC)/C(C)=C/C=C/[C@@H]2C)cs1" shows pIC50 at minimum 6?
Given back: TRUE

Asked: Please check the record CNC(=O)O[C@@H](CC(C)C)c1nc([C@H]2OC(=O)/C(C)=C/C/C(C)=C/[C@@H](O)[C@@H](C)\C=C(C)/C=C(C)\C=C\[C@@H](O)[C@H](C)[C@H](OC)/C(C)=C/C=C/[C@@H]2C)cs1 [ARCHAZOLID A] and state if its pIC50 is at or above 6.
Given back: TRUE

Asked: Textbook exercise: given the entry "CNC(=O)O[C@@H](CC(C)C)c1nc([C@H]2OC(=O)C/C=C/C(C)=C/[C@@H](O)[C@@H](C)\C=C(C)/C=C(C)\C=C\[C@@H](O)[C@H](C)[C@H](O)/C(C)=C/C=C/[C@@H]2C)cs1" , state whether its pIC50 is greater than or equal to 6.
Given back: FALSE

Asked: Has CNC(=O)O[C@@H](CC(C)C)c1nc([C@H]2OC(=O)/C=C/C/C(C)=C/[C@@H](O)[C@@H](C)\C=C(C)/C=C(C)\C=C\[C@@H](O)[C@H](C)[C@H](OC)/C(C)=C/C=C/[C@@H]2C)cs1 [ARCHAZOLID B] a recorded pIC50 greater than or equal to 6?
Given back: TRUE

Just for reference, ChEMBL document CHEMBL4376896 is where these values come from.
